METHOD_DESCRIPTION: NCI Yeast Anticancer Drug Screen. Data for the mec2-1 strain (AID 157)
CONDITION_SET: S. cerevisiae mec2-1 strain, at 5.0 µM (retest, dose inferred, filed as 0.5)
Compounds without any hit were thinned out: in the full panel of roughly 79,000, 15% have a hit. Activity calls are given as the source filed them. Cut-off read from the data, not from the text of the source: active = growth inhibition above about 70%; inactive = the rest.
Please answer using one outcome listed in true (active), false (inactive)

Ask: Record lookup: outcome of this test for O=[N+]([O-])c1ccc(Oc2ccccc2Cl)c([N+](=O)[O-])c1 ?
Reply: false

Ask: Next: O=C1C=CC(=O)c2c(O)c(CO)c(CO)c(O)c21
Reply: false

Ask: And for c1csc(-c2[nH]nc3c2CCc2ccccc2-3)c1 ?
Reply: false

Ask: Note, next up: CC1C2c3ccccc3C(c3ccccc32)C1CO (centres undefined)
Reply: false

Ask: Try CCC[CH2][Sn]([CH2]CCC)([CH2]CCC)[O]C(=O)C(OC(C)=O)c1ccccc1 (centres undefined) next.
Reply: true

Ask: And what about the compound C1=C(c2ccccc2)c2ccccc2C1 ?
Reply: false

Ask: Now try C/C(=N/NC(N)=S)c1ccc(C)cc1 .
Reply: false

Ask: Follow-up item: CCN(CC)CCNC(Cc1ccccc1)c1ccc(OCc2ccccc2)cc1 (centres undefined)
Reply: false

Ask: Please answer likewise for COC(=O)c1cc([N+](=O)[O-])cc([N+](=O)[O-])c1Cl
Reply: true

Ask: Next compound up: CN(C)CNC(=S)S
Reply: true

Ask: And CCCCCC[C@@H](O)C/C=C\CCCCCCCC(=O)OCCOC ?
Reply: false

Ask: Now the compound CC(C)(C)c1ccc(O)c(-c2ccccc2)c1
Reply: false

Ask: What do you get for COc1ccc2c(c1OC)OCC(CN(C)C)C2=O (centres undefined) ?
Reply: false

Ask: Could you do the same for Nc1ccc(C(=O)/C=C/c2ccccc2)cc1 , please?
Reply: false

Origin of measurements: PubChem BioAssay (NCI)
